# experiment summary: HILIC, Waters ACQUITY UPLC BEH Amide, 100 × 2.1 mm, 1.7 µm; A: water + 0.125% formic acid + 10 mM ammonium formate; B: 5% water + 95% acetonitrile + 0.125% formic acid + 10 mM ammonium formate; gradient (min/%B) 0/100 2/100 7.7/70 9.5/40 10.25/30 12.75/100 17/100
# experimental parameters: stereoisomer not certain
measured parameter: LC retention time (min)
Enter your answer as a number in min; do not include the unit.

Below: 2 molecules and their reported LC retention time.
molecule	LC retention time [min]
Cc1cn(C2C=CC(CO)O2)c(=O)[nH]c1=O (stereo not drawn)	1.62
OCc1cccnc1	1.41

Data request: Consider the molecule shown here: O=C1CC(c2ccc(O)cc2)Oc2cc(O)ccc21 (stereo not drawn) What is its recorded LC retention time?
Data returned: 1.3

Data request: Consider the molecule shown here: `CC(C)C(=O)NCC(=O)O` What is its recorded LC retention time?
Data returned: 3.6

Data request: Consider the molecule shown here: `Cc1[nH]cnc1CN1CCc2c(c3ccccc3n2C)C1=O` What is its recorded LC retention time?
Data returned: 4.19

Data request: Consider the molecule shown here: CN1CCC23c4c5ccc(O)c4OC2C(=O)CCC3(O)C1C5 (stereo not drawn) What is its recorded LC retention time?
Data returned: 5.5

Data request: Consider the molecule shown here: CC(=O)OC12COC1CC(O)C1(C)C(=O)C(O)C3=C(C)C(OC(=O)C(O)C(NC(=O)OC(C)(C)C)c4ccccc4)CC(O)(C(OC(=O)c4ccccc4)C21)C3(C)C (stereo not drawn) What is its recorded LC retention time?
Data returned: 1.34

Data request: Consider the molecule shown here: `CN1CCN(CCCN2c3ccccc3Sc3ccc(C(F)(F)F)cc32)CC1` What is its recorded LC retention time?
Data returned: 2.15

Data request: Consider the molecule shown here: CN1CCCC1C(=O)O (stereo not drawn) What is its recorded LC retention time?
Data returned: 7.11

Data request: Consider the molecule shown here: `Nc1ccc2cn[nH]c2c1` What is its recorded LC retention time?
Data returned: 1.26

Data request: Consider the molecule shown here: NC(=O)c1ccc[n+](C2OC(CO)C(O)C2O)c1 (stereo not drawn) [Nicotinamide riboside cation] What is its recorded LC retention time?
Data returned: 7.51

Data request: Consider the molecule shown here: OCCc1c[nH]c2ccc(O)cc12 [5-Hydroxytryptophol] What is its recorded LC retention time?
Data returned: 5.93
